# assayedTarget: Gamma-aminobutyric acid receptor subunit alpha-1/alpha-6/beta-3/gamma-2 (Rattus norvegicus, UniProt P18508+P30191+P62813+P63079)
# Sequence (P18508 whole entry): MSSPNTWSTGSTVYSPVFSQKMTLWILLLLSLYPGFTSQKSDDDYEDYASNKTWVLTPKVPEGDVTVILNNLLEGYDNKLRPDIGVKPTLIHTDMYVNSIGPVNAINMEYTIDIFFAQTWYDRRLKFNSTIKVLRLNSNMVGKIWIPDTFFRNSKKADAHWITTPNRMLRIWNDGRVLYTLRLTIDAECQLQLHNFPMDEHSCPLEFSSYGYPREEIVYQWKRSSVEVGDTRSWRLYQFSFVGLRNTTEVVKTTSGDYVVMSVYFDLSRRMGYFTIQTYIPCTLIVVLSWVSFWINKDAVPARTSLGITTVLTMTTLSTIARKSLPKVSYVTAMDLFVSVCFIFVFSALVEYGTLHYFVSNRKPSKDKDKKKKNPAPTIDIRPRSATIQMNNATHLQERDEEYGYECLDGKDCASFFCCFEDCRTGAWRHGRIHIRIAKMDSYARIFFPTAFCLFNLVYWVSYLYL
# Sequence (P30191 whole entry): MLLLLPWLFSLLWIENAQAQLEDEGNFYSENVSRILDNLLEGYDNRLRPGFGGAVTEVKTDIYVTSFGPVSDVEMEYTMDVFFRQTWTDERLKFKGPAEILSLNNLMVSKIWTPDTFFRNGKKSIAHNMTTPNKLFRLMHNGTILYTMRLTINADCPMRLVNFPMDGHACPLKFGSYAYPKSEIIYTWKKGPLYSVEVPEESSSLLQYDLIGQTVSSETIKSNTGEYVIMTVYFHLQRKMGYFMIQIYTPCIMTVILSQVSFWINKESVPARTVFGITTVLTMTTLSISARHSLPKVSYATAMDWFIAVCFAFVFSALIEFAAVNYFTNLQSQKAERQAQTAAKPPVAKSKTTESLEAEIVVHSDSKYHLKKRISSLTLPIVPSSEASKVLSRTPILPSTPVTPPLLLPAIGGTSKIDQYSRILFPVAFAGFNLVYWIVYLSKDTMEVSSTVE
# Sequence (P62813 whole entry): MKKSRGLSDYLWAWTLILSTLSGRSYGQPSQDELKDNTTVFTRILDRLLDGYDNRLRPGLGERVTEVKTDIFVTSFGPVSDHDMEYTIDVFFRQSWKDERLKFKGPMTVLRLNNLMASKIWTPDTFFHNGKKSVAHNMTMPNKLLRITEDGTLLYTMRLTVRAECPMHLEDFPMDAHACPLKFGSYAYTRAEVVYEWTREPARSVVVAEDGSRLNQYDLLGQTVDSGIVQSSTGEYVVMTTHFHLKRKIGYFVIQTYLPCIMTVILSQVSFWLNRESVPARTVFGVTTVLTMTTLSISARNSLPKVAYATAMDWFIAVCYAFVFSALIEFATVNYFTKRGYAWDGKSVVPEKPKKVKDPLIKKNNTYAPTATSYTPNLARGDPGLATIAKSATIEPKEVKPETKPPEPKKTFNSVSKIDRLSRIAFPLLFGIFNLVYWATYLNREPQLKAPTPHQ
# Sequence (P63079 whole entry): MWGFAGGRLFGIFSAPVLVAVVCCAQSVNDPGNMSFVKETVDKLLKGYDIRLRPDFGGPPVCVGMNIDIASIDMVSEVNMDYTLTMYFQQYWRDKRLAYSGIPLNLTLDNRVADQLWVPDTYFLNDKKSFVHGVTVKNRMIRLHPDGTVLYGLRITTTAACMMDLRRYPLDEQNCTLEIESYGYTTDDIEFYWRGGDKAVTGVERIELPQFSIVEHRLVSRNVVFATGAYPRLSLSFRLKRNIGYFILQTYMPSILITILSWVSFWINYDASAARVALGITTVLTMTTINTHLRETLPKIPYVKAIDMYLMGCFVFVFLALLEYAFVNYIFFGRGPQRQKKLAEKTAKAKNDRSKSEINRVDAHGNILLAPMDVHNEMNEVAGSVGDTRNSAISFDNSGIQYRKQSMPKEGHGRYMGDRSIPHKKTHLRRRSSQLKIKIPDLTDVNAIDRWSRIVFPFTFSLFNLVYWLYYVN
# testProtocol: Positive allosteric modulation of rat recombinant GABAA gamma2beta3alpha1-beta3alpha6 receptor expressed in Xenopus laevis oocytes assessed as increase in GABA-induced current amplitude at -80 mV holding potential under less potent phase in presence of GABA EC1 to 1.5 by two-electrode voltage-clamp assay
# Format: cell-based, Oocyte
assayMetric: EC50 (µM)
Express the result in µM but write the number alone.

Find the recorded EC50 belonging to "COc1ccc(-n2nc3c4ccc(Br)cc4[nH]cc-3c2=O)cc1" and report it. 36

* * *

Listed here are compounds together with their documented EC50.
# assayedTarget: Gamma-aminobutyric acid receptor subunit alpha-6/beta-3/gamma-2 (Rattus norvegicus, UniProt P18508+P30191+P63079)
# testProtocol: Positive allosteric modulation of rat recombinant GABAA alpha6beta3alpha6-gamma2beta3 receptor expressed in Xenopus laevis oocytes assessed as increase in GABA-induced current amplitude at -80 mV holding potential under less potent phase in presence of GABA EC1 to 1.5 by two-electrode voltage-clamp assay
# Type: cell-based, Oocyte
Express the result in µM but write the number alone.

Examples with answers:
> print(dat)
                             compoundsmiles  val
1  COc1ccc(-n2nc3c4ccc(OC)cc4[nH]cc-3c2=O)cc1  118
2  COc1ccc(-n2nc3c4ccc(C(F)(F)F)cc4[nH]cc-3c2=O)cc1  100
3  COc1ccc(-n2nc3c4ccc(Cl)cc4[nH]cc-3c2=O)cc1   17
4  COc1ccc(-n2nc3c4ccc(Br)cc4[nH]cc-3c2=O)cc1   24
5  COc1ccc(-n2nc3c4ccc(C(C)=O)cc4[nH]cc-3c2=O)cc1  735
6  COc1ccc(-n2nc3c4ccc(F)cc4[nH]cc-3c2=O)cc1   32

Find the recorded EC50 belonging to "CCc1ccc2c3nn(-c4ccc(OC)cc4)c(=O)c-3c[nH]c2c1" and report it. 299

* * *

# assayedTarget: Gamma-aminobutyric acid receptor subunit alpha-6/beta-3/gamma-2 (Rattus norvegicus, UniProt P18508+P30191+P63079)
# testProtocol: Positive allosteric modulation of rat recombinant GABAA alpha6beta3gamma2 receptor expressed in Xenopus laevis oocytes assessed as increase in GABA-induced current amplitude at -80 mV holding potential under less potent phase in presence of GABA EC1 to 1.5 by two-electrode voltage-clamp assay
# Type: cell-based, Oocyte
assayMetric: EC50
Show the value, then the unit it is measured in.

Find the recorded EC50 belonging to "COc1ccc(-n2nc3c4ccc(Br)cc4[nH]cc-3c2=O)cc1" and report it. 11 µM

* * *

# assayedTarget: Gamma-aminobutyric acid receptor subunit alpha-6/beta-3/gamma-2 (Rattus norvegicus, UniProt P18508+P30191+P63079)
# testProtocol: Positive allosteric modulation of rat recombinant GABAA alpha6beta3alpha6-gamma2beta3 receptor expressed in Xenopus laevis oocytes assessed as increase in GABA-induced current amplitude at -80 mV holding potential under more potent phase in presence of GABA EC1 to 1.5 by two-electrode voltage-clamp assay
# Format: cell-based, Oocyte
assayMetric: EC50 (nM)
Express the result in nM but write the number alone.

Find the recorded EC50 belonging to "COc1ccc(-n2nc3c4ccc(C(C)=O)cc4[nH]cc-3c2=O)cc1" and report it. 50

Find the recorded EC50 belonging to "CCc1ccc2c3nn(-c4ccc(OC)cc4)c(=O)c-3c[nH]c2c1" and report it. 23

Find the recorded EC50 belonging to "COc1ccc(-n2nc3c4ccc(Cl)cc4[nH]cc-3c2=O)cc1" and report it. 10

* * *

# assayedTarget: Gamma-aminobutyric acid receptor subunit alpha-6/beta-3/gamma-2 (Rattus norvegicus) (UniProt P18508+P30191+P63079)
# testProtocol: Positive allosteric modulation of rat recombinant GABAA alpha6beta3alpha6-gamma2beta3 receptor expressed in Xenopus laevis oocytes assessed as maximal current at -80 mV holding potential under more potent phase in presence of GABA EC1 to 1.5 by two-electrode voltage-clamp assay relative to control
# Assay type: cell-based
# assayContext: Oocyte, filed as positive allosteric modulator
assayMetric: %max

> print(dat)
                             compoundsmiles   val
1  COc1ccc(-n2nc3c4ccc(C(C)=O)cc4[nH]cc-3c2=O)cc1   82%
2  COc1ccc(-n2nc3c4ccc(OC)cc4[nH]cc-3c2=O)cc1  113%

Find the recorded %max belonging to "CCc1ccc2c3nn(-c4ccc(OC)cc4)c(=O)c-3c[nH]c2c1" and report it. 57%

Find the recorded %max belonging to "COc1ccc(-n2nc3c4ccc(Cl)cc4[nH]cc-3c2=O)cc1" and report it. 56%

Find the recorded %max belonging to "COc1ccc(-n2nc3c4ccc(F)cc4[nH]cc-3c2=O)cc1" and report it. 96%

Find the recorded %max belonging to "COc1ccc(-n2nc3c4ccc(C(F)(F)F)cc4[nH]cc-3c2=O)cc1" and report it. 49%

Find the recorded %max belonging to "COc1ccc(-n2nc3c4ccc(Br)cc4[nH]cc-3c2=O)cc1" and report it. 82%

* * *

# assayedTarget: Gamma-aminobutyric acid receptor subunit alpha-6/beta-3/gamma-2 (Rattus norvegicus) (UniProt P18508+P30191+P63079)
# testProtocol: Positive allosteric modulation of rat recombinant GABAA alpha6beta3alpha6-gamma2beta3 receptor expressed in Xenopus laevis oocytes assessed as maximal efficacy at -80 mV holding potential at 100 nM in presence of GABA EC1 to 1.5 by two-electrode voltage-clamp assay
# Assay type: cell-based
# assayContext: Oocyte, filed as positive allosteric modulator
Criterion: Efficacy meeting or surpassing 80%. Met: met. Not met: not met.

> print(dat)
                             compoundsmiles  classification
1  COc1ccc(-n2nc3c4ccc(C(C)=O)cc4[nH]cc-3c2=O)cc1         not met
2  COc1ccc(-n2nc3c4ccc(OC)cc4[nH]cc-3c2=O)cc1             met
3  COc1ccc(-n2nc3c4ccc(C(F)(F)F)cc4[nH]cc-3c2=O)cc1             met

# bool: Efficacy of "CCc1ccc2c3nn(-c4ccc(OC)cc4)c(=O)c-3c[nH]c2c1" >= 80% not met

# bool: Efficacy of "COc1ccc(-n2nc3c4ccccc4[nH]cc-3c2=O)cc1" >= 80% not met

# bool: Efficacy of "C#Cc1ccc2c3nn(-c4ccc(OC)cc4)c(=O)c-3c[nH]c2c1" >= 80% not met

# bool: Efficacy of "COc1ccc(-n2nc3c4ccc(Cl)cc4[nH]cc-3c2=O)cc1" >= 80% not met

# bool: Efficacy of "COc1ccc(-n2nc3c4ccc(F)cc4[nH]cc-3c2=O)cc1" >= 80% not met

# bool: Efficacy of "COc1ccc(-n2nc3c4ccc(C)cc4[nH]cc-3c2=O)cc1" >= 80% met

# bool: Efficacy of "COc1ccc(-n2nc3c4ccc(Br)cc4[nH]cc-3c2=O)cc1" >= 80% met

* * *

# assayedTarget: Gamma-aminobutyric acid receptor subunit alpha-6/beta-3/gamma-2 (Rattus norvegicus, UniProt P18508+P30191+P63079)
# testProtocol: Positive allosteric modulation of rat recombinant GABAA alpha6beta3alpha6-gamma2beta3 receptor expressed in Xenopus laevis oocytes assessed as increase in GABA-induced current amplitude at -80 mV holding potential in presence of GABA EC1 to 1.5 by two-electrode voltage-clamp assay
# Type: cell-based, Oocyte
assayMetric: EC50 (µM)
Express the result in µM but write the number alone.

Examples with answers:
> print(dat)
                             compoundsmiles  readoutunit  val
1    COc1ccc(-n2nc3c4ccccc4[nH]cc-3c2=O)cc1           µM    9
2  C#Cc1ccc2c3nn(-c4ccc(OC)cc4)c(=O)c-3c[nH]c2c1           µM    5

--- query ---
Find the recorded EC50 belonging to "COc1ccc(-n2nc3c4ccc(C)cc4[nH]cc-3c2=O)cc1" and report it. 13

* * *

# assayedTarget: Gamma-aminobutyric acid receptor subunit alpha-1/alpha-6/beta-3/gamma-2 (Rattus norvegicus, UniProt P18508+P30191+P62813+P63079)
# testProtocol: Positive allosteric modulation of rat recombinant GABAA alpha6beta3alpha1-gamma2beta3 receptor expressed in Xenopus laevis oocytes assessed as increase in GABA-induced current amplitude at -80 mV holding potential under less potent phase in presence of GABA EC1 to 1.5 by two-electrode voltage-clamp assay
# Format: cell-based, Oocyte
assayMetric: EC50 (µM)
Express the result in µM but write the number alone.

Find the recorded EC50 belonging to "COc1ccc(-n2nc3c4ccc(Br)cc4[nH]cc-3c2=O)cc1" and report it. 7

* * *

Listed here are compounds together with their documented Efficacy.
# assayedTarget: Gamma-aminobutyric acid receptor subunit alpha-6/beta-3/gamma-2 (Rattus norvegicus) (UniProt P18508+P30191+P63079)
# testProtocol: Positive allosteric modulation of rat recombinant GABAA alpha6beta3alpha6-gamma2beta3 receptor expressed in Xenopus laevis oocytes assessed as maximal efficacy at -80 mV holding potential at 1 uM in presence of GABA EC1 to 1.5 by two-electrode voltage-clamp assay
# Type: cell-based
# assayContext: Oocyte, filed as positive allosteric modulator
Express the result in % but write the number alone.

Examples with answers:
> print(dat)
                             compoundsmiles  assaymetric  val
1  COc1ccc(-n2nc3c4ccc(OC)cc4[nH]cc-3c2=O)cc1     Efficacy  178
2  COc1ccc(-n2nc3c4ccc(Br)cc4[nH]cc-3c2=O)cc1     Efficacy  196
3  COc1ccc(-n2nc3c4ccc(C)cc4[nH]cc-3c2=O)cc1     Efficacy  234
4    COc1ccc(-n2nc3c4ccccc4[nH]cc-3c2=O)cc1     Efficacy  152

Find the recorded Efficacy belonging to "COc1ccc(-n2nc3c4ccc(C(C)=O)cc4[nH]cc-3c2=O)cc1" and report it. 101

Find the recorded Efficacy belonging to "CCc1ccc2c3nn(-c4ccc(OC)cc4)c(=O)c-3c[nH]c2c1" and report it. 127

Find the recorded Efficacy belonging to "COc1ccc(-n2nc3c4ccc(Cl)cc4[nH]cc-3c2=O)cc1" and report it. 180

Find the recorded Efficacy belonging to "COc1ccc(-n2nc3c4ccc(F)cc4[nH]cc-3c2=O)cc1" and report it. 156

Find the recorded Efficacy belonging to "C#Cc1ccc2c3nn(-c4ccc(OC)cc4)c(=O)c-3c[nH]c2c1" and report it. 163

Find the recorded Efficacy belonging to "COc1ccc(-n2nc3c4ccc(C(F)(F)F)cc4[nH]cc-3c2=O)cc1" and report it. 147
